Each recorded value in this set is attributed to ChEMBL document CHEMBL1275333.

Could you please report measured IC50 for the items listed next?
Target chain: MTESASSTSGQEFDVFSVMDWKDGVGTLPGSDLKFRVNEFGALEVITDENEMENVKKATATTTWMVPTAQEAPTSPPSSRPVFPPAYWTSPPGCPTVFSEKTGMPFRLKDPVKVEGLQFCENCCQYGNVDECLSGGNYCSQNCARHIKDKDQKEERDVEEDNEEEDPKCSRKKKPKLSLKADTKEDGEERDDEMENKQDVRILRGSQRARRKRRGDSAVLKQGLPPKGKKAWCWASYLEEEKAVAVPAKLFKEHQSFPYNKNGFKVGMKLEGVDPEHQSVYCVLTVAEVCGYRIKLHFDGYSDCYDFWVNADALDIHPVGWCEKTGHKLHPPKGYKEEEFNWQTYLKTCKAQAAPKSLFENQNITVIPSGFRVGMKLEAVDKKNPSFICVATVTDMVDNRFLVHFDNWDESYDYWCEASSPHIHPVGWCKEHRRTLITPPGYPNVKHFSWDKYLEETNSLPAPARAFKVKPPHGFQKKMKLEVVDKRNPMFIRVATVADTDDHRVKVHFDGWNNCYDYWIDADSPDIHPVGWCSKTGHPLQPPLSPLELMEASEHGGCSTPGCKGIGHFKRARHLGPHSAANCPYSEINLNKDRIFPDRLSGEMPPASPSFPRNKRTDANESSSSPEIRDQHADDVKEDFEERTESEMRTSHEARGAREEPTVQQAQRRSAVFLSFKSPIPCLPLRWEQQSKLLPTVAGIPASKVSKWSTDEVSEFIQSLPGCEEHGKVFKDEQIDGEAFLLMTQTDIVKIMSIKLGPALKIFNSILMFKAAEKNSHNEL
One number for each entry, in µM.

Could you tell me IC50 for each of these compounds? They are listed below.
1. Cc1ncc(CCCCN(C)C)c2c1[nH]c1ccccc12
2. CCN(CC)CCCNS(=O)(=O)c1cc(OC)ccc1OC
3. CC(CCN(C)C)OC(=O)c1ccc(C(C)c2ccccc2)o1 (stereo not drawn)

A.
1: 5.7; 2: 48; 3: 75

Data point: `CNCCCCOc1ccc(C)cc1OC` ; IC50 = 84

====

tested.on: Lethal(3)malignant brain tumor-like protein 1 (Homo sapiens, UniProt Q9Y468)
Sequence (Q9Y468 whole entry): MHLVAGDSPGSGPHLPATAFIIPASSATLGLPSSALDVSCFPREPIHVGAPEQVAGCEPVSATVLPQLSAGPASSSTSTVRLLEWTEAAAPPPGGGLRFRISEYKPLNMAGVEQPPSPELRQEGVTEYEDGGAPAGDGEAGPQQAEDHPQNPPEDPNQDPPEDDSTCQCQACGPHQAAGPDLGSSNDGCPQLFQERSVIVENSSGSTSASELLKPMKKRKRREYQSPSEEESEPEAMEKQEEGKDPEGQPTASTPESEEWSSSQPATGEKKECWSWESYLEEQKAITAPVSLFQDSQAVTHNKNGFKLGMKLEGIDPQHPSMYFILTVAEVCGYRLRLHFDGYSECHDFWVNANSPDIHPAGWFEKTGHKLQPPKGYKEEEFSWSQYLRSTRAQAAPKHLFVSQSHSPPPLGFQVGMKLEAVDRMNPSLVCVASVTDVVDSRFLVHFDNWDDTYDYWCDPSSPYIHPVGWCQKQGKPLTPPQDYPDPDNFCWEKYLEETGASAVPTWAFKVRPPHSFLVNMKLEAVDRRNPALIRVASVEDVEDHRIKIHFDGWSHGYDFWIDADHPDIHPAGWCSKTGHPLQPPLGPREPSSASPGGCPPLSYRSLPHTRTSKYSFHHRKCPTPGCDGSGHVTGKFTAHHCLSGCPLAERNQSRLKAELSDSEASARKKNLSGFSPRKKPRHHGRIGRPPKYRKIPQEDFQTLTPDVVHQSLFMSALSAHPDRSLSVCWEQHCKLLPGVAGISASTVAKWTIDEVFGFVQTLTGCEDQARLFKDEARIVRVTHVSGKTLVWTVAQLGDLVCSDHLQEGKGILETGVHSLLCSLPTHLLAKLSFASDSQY
Could you please report measured IC50 for the items listed next?
One number for each entry, in µM.

Examples with answers:
Cc1ccc(S(=O)(=O)NCCCN2CCCC2)cc1: 17
CNCC1CCN(CCc2ccc(Cl)cc2)CC1: 69
CCc1cc(OCCCCNC)ccc1Cl: 96
Cc1ncc(CCCCN(C)C)c2c1[nH]c1ccccc12: 21

Could you tell me IC50 for each of these molecules? They are listed below.
1. CNCCCCOc1ccc(Cc2ccccc2)cc1
2. CC(CCN(C)C)OC(=O)c1ccc(C(C)c2ccccc2)o1 (stereo not drawn)

A.
[91, 84]
